target: Human IDO1 (Homo sapiens, UniProt P14902); experiment: IDO Kynurenine Assay with Human IDO1/HEK293 Cells; conditions: read-out: HEK human IDO-1 (IC50)
Sequence (P14902 whole entry): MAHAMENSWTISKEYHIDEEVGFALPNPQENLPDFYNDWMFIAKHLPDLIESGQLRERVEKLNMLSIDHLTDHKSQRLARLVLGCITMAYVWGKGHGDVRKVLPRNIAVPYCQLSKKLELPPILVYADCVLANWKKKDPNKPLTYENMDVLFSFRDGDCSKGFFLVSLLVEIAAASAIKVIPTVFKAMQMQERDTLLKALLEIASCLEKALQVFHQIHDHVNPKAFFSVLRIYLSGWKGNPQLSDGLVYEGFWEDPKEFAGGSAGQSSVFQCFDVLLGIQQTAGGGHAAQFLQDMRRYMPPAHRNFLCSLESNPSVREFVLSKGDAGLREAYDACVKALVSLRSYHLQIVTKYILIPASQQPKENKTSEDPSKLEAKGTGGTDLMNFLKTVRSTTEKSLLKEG
quantity-name: IC50 (nM)

COCCN(c1ccc(-c2cc(F)ccc2C(=O)O)cc1NC(=O)Nc1ccc(C)cc1)C1CCCCC1 | 60
Cc1ccc(NC(=O)Nc2cc(-c3cc(F)ccc3C(=O)O)ccc2N(CC(C)C)CC(C)C)cc1 | 10
CCOc1ccc(NC(=O)Nc2cc(-c3cccc(C)c3C(=O)O)ccc2N(CC(C)C)CC(C)C)cc1 | 60
CCC(CC)N(CC(C)C)c1ccc(-c2ccccc2C(=O)O)cc1NC(=O)Nc1ccc(C)cc1 | 10

P. Cc1ccc(NC(=O)Nc2cc(-c3ccccc3C(=O)O)c(F)cc2N(CC(C)C)C2CCC(F)(F)CC2)cc1
Q. C=C(C)CN(c1ccc(-c2ccccc2C(=O)O)cc1NC(=O)Nc1ccc(C)cc1)C1CCCCC1
R. CC(C)CN(c1cc(F)c(-c2cc(F)ccc2C(=O)O)cc1NC(=O)Nc1ccc(C(F)(F)F)nc1)C1CCCCC1
(Q) Please give the order of these molecules when sorted by IC50, largest value leading. Output spec: labels arranged per the requested ranking.
(A) R, P, Q
